- Assay Details: HPAF-II Cancer Cell Toxicity qHTS against the NCATS CANVASS Library (AID 1347346); note: nearly all actives have a fitted effect of over 55% in size; note: potency is the fitted concentration of half-maximal effect
- Assay Conditions: HPAF-II viability, CellTiter-Glo ATP luminescence, 72 h; series mostly up to 38.3 µM
Results filed as inconclusive are left out. Active and inactive are the calls of the source. Calls come from the whole dose curve; as a rule, active = well fitted cell-killing curve with a large enough effect; inconclusive = small, poorly fitted or top-dose-only effect; inactive = flat fitted curve, though single readings scatter.
Measured Metric: Potency

1. C=CC(C)(C)C(=O)[C@@H](C)[C@@H]1CC[C@](C)(C=C)O1 = inactive
2. Oc1ccc(C2c3c(O)cc(O)cc3[C@@H]3C(c4ccc(O)cc4)c4c(O)cc(O)cc4[C@H]23)cc1 (some centres undefined) = inactive
3. C=C(C)C(=O)O[C@H]1C[C@H](C)[C@@H](OC(C)=O)CC[C@@]2(C)O[C@@H]2[C@H]2OC(=O)C(COC(C)=O)=C12 = 11.9 µM (active)
4. C=C1/C=C\C(CCC)=C\c2csc(n2)C(C)NC(=O)C[C@@]2(CC(=O)O)CCC(=C)[C@H](C1)S2 (some centres undefined) = inactive

---

- Assay Details: Primary qHTS for inhibitors of nuclear receptor binding SET domain protein 2 (NSD2) in an RCH-ACV wild type WT cells (2C) (AID 1645877); note: nearly all actives have a fitted effect of over 70% in size
- Assay Conditions: RCH-ACV (leukaemia line) NSD2 WT (2C) viability, CellTiter-Glo, 72 h; series mostly up to 44.9 µM
Records with an inconclusive call do not appear. The source made the active and inactive calls. The call rests on the fitted dose curve; in most records, active means well fitted inhibition curve with a large enough effect; inconclusive means small, poorly fitted or top-dose-only effect; inactive means no such curve, though single readings can be large or run the other way.
Labels: active, inactive

1. CCN(CC)Cc1cccc(/C=C/c2nc3ccc(F)cc3c(=O)n2-c2ccccc2Cl)n1 = active
2. C=CC(=O)Nc1cc(Nc2nccc(-c3cn(C)c4ccccc34)n2)c(OC)cc1N(C)CCN(C)C = active
3. COc1ccc2cc1Oc1ccc(cc1)CC1c3cc(c(OC)cc3CCN1C)Oc1c(OC)c(OC)c(OC)c3c1C(C2)N(C)CC3 (stereo not given) = inactive
4. C=C(C)C(=O)O[C@H]1[C@H]2C(=C)C(=O)O[C@@H]2C[C@@H](C)[C@@H]2O[C@@H]2C(=O)[C@](C)(O)[C@@H]1OC(C)=O = active
5. O=S(=O)(c1cccc2ccccc12)n1ccc2ccc(N3CCN4CCCC4C3)cc21 (stereo not given) = active

---

- Tested on: Zika virus NS2B-NS3 protease (linked construct)
- Assay Details: Primary screen NINDS Rhodamine qHTS for Zika virus inhibitors (AID 1347160); note: nearly all actives have a fitted effect of over 55% in size
- Assay Conditions: purified NS2B-NS3 protease, Rhodamine110 substrate fluorescence; series mostly up to 57.1 µM
Inconclusive results are not listed. The source made the active and inactive calls. Calls come from the whole dose curve; as a rule, active = well fitted inhibition curve with a large enough effect; inconclusive = small, poorly fitted or top-dose-only effect; inactive = no such curve, though single readings can be large or run the other way.
Outcome codes: class 1 (active), class 0 (inactive)

1. COc1cc2nc(N3CCN(C)CC3)nc(NC3CCN(Cc4ccccc4)CC3)c2cc1OC = class 0
2. COC(=O)/C=C/C(=O)N(O)CCCCNCc1ccc(COC(=O)Nc2cccc3ccccc23)cc1 = class 0
3. CCC[C@@H](NC(=O)N1C(=O)C(CC)(CC)[C@@H]1Oc1ccc(C(=O)N2CCN(C)CC2)cc1)c1ccc2c(c1)OCO2 = class 0
4. CC(C)(Br)[C@@H](Cl)C[C@H](Br)[C@](C)(Cl)/C=C/Br = class 1

---

- Tested System: Furin (Homo sapiens) (UniProt P09958)
- Sequence (P09958 whole entry, looked up): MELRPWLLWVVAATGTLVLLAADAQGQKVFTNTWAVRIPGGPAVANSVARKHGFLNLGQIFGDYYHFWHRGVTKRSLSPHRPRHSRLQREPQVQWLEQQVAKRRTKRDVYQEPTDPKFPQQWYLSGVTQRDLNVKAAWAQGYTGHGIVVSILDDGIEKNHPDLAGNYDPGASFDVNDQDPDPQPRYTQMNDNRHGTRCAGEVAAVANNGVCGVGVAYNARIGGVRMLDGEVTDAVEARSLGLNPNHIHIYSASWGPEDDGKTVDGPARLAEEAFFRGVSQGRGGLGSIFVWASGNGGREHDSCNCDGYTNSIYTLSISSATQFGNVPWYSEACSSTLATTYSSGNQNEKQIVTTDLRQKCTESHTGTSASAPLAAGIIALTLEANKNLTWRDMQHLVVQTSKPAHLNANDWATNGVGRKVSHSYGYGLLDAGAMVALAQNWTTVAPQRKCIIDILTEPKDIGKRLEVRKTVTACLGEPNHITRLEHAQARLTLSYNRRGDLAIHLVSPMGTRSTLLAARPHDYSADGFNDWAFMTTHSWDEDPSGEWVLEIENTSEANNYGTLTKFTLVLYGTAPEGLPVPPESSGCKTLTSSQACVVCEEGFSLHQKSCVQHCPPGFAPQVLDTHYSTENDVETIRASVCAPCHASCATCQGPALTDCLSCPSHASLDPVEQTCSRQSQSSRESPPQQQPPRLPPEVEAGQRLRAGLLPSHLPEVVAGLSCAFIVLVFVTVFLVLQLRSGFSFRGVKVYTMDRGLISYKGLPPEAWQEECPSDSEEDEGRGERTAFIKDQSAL
- Assay Details: Furin counterscreen qHTS for Zika virus inhibitors (AID 1347149); note: nearly all actives have a fitted effect of over 70% in size
- Assay Conditions: furin enzymatic counterscreen, fluorogenic substrate; series mostly up to 114 µM
Records with an inconclusive call do not appear. Active and inactive are the calls of the source. The call rests on the fitted dose curve; in most records, active means well fitted inhibition curve with a large enough effect; inconclusive means small, poorly fitted or top-dose-only effect; inactive means no such curve, though single readings can be large or run the other way.
Labels: T = active, F = inactive

1. CCOC(=O)c1cccc(NC(=O)CSc2ncc3c(n2)-c2ccc(Cl)cc2N(Cc2ccccc2)S3(=O)=O)c1 = F
2. COC(=O)[C@H](Cc1ccc(OC)cc1)NC(=O)[C@H]1CN(S(=O)(=O)c2ccccc2)CCN1S(=O)(=O)c1ccccc1 = F
3. O=C(O)c1cc(-n2c(/C=C\c3ccc(F)cc3)nc3ccccc3c2=O)ccc1Cl = F
4. O=C1C=CC(=O)c2c(O)c(Cl)c(Cl)c(O)c21 = F
5. O=C(Nc1cccc(C(=O)OCc2cc(=O)n3c4c(sc3n2)CCCC4)c1)c1ccc(Cl)cc1 = T
6. O=S(=O)(Nc1ccc(O)c(Sc2nc3ccccc3s2)c1)c1cc(Cl)ccc1Cl = F
7. CC[C@@H]1O[C@]2(C=C[C@@H]1C)C[C@H]1C[C@H](CC=C(C)[C@@H](O[C@@H]3C[C@H](OC)[C@H](O[C@@H]4C[C@H](OC)[C@H](O)[C@H](C)O4)[C@H](C)O3)[C@@H](C)C=CC=C3CO[C@@H]4[C@@H](O)C(C)=C[C@@H](C(=O)O1)[C@]34O)O2 = F
8. Cc1cccc(C(=O)Nc2ccc(C(=O)OCc3cc(=O)n4nc(C5CC5)sc4n3)cc2)c1 = T
9. O=C(OCC#CCSc1nnc(-c2cccc3ccccc23)o1)c1ccc(F)cc1F = T
10. O=C(O)Cn1nnc(-c2ccc(OCc3cccc(C(F)(F)F)c3)cc2)n1 = F
11. CC(C)c1nn2c(=O)cc(COC(=O)c3cccc(NC(=O)c4ccccc4F)c3)nc2s1 = F
12. CCOc1ccc(C(=O)Nc2cccc(C(=O)OCc3cc(=O)n4nc(C5CC5)sc4n3)c2)cc1 = T

---

- Test system: Tov112D
- Assay Details: Primary qHTS to identify gynecologic anti-cancer compounds using libraries of approved drugs and bioactive compounds (AID 1345084); note: nearly all actives have a fitted effect of over 55% in size
- Assay Conditions: Gynecologic cancer cell panel viability, ATPlite luminescence, 48 h; series mostly up to 57.5 µM
Inconclusive results are not listed. The source made the active and inactive calls. The call rests on the fitted dose curve; in most records, active means well fitted cell-killing curve with a large enough effect; inconclusive means small, poorly fitted or top-dose-only effect, or effect the other way; inactive means flat fitted curve, though single readings scatter.
Labels: active, inactive

1) CCOc1ccc(-c2nc(-c3cccc4c3CCC4NCCO)no2)cc1OCC (stereo not drawn) = inactive
2) OCC(Cc1ccccc1)Nc1nc(Oc2ccc3c(c2)CCC3)nc2c1ncn2Cc1ccc(-c2ccccc2)cc1 (stereo not drawn) = inactive
3) CCCCc1nc(C)c(CC(=S)N(C)C)c(=O)n1Cc1ccc(-c2ccccc2-c2nn[nH]n2)cc1 = inactive
4) N#Cc1c[nH]c2c(C(=O)N3CCN(CCc4ccc(F)cc4)CC3)cccc12 = inactive
5) C=C(C)[C@@H]1CC[C@]2(C(=O)O)CC[C@]3(C)C(CCC4[C@@]5(C)C[C@@H](O)[C@H](O)C(C)(C)C5CC[C@]43C)C12 (stereo partly drawn) = inactive
6) Cn1nccc1Nc1nccc(-c2ccn([C@H](CO)c3ccc(Cl)c(F)c3)c(=O)c2)n1 = inactive
7) CN[C@@H]1[C@@H](O)[C@@H](O[C@@H]2[C@@H](O)[C@H](O[C@H]3O[C@@H]([C@@H](C)NC)CC[C@H]3N)[C@@H](N)C[C@H]2N)OC[C@]1(C)O = inactive
8) CCCCn1c(-c2ccccc2)nc(-c2ccccc2)c1CN(Cc1ccc2c(c1)OCO2)Cc1ccc2c(c1)OCO2 = inactive
9) CS(=O)(=O)c1ccc(-c2cn3ccccc3n2)cc1 = active
10) OCC(CO)(CO)NCC(O)Cn1c2ccc(Cl)cc2c2cc(Cl)ccc21 (stereo not drawn) = inactive
11) COc1cc(-c2cc(-c3ccc(N4CCNCC4)cc3)cnc2C)cc(OC)c1OC = inactive
12) C=C1C(=O)O[C@@H]2C[C@@]3(C)CCC[C@H](C)C3=C[C@H]12 = inactive
13) COc1c(N2CC3CCCNC3C2)c(F)cc2c(=O)c(C(=O)O)cn(C3CC3)c12 (stereo not drawn) = inactive

---

- Assay Details: P-glycoprotein substrates identified in KB-8-5-11 adenocarcinoma cell line, qHTS therapeutic library screen (AID 1346987); note: nearly all actives have a fitted effect of over 65% in size
- Assay Conditions: KB-8-5-11 (P-gp overexpressing) viability, CellTiter-Glo, 72 h; series mostly up to 44.5 µM
Inconclusive results are not listed. Calls of active or inactive are those of the source. Calls follow the shape of the dose curve; as a rule, active = well fitted inhibition curve with a large enough effect; inconclusive = small, poorly fitted or top-dose-only effect; inactive = flat fitted curve, though single readings scatter.
Possible outcomes: active, inactive

1) O=C(O)c1ccc2c3c1cccc3c(=O)n1c3ccccc3nc21 = inactive
2) O=[N+]([O-])c1ccc(-[n+]2nc(-c3ccccc3)nn2-c2ccc(I)cc2)cc1 = active
3) c1nc(NCC2CCOC2)c2cc(-c3ccc4c(c3)OCO4)ccc2n1 (configuration not stated) = inactive
4) C[C@@]1(F)[C@H](O)[C@@H](CO)O[C@H]1n1ccc(N)nc1=O = inactive
5) O=c1[nH]ccc2c(S(=O)(=O)N3CCCNCC3)cccc12 = inactive
6) O=C(Nc1cccc(Nc2cc(Nc3cccc(C(F)(F)F)c3)ncn2)c1)C1CC1 = active
7) NS(=O)(=O)c1cccc(N=Cc2c(O)[nH]c3ccccc23)c1 = inactive

---

- Assay Details: J3T Cancer Cell Toxicity qHTS against the NCATS CANVASS Library (AID 1347371)
- Assay Conditions: J3T dog glioma viability, ATP luminescence, 72 h; series mostly up to 46.1 µM
Records with an inconclusive call do not appear. Calls of active or inactive are those of the source. Calls come from the whole dose curve; as a rule, active = well fitted cell-killing curve with a large enough effect; inconclusive = small, poorly fitted or top-dose-only effect; inactive = flat fitted curve, though single readings scatter.
Measured Metric: outcome

1) C[C@@H]1C(=O)[C@]23CC[C@H]1C[C@]21O[C@H]2C(C)(C)C=CC(=O)[C@@]23COC1=O = inactive
2) CC(=O)NC[C@@H]1O[C@H](CC/C=C(C)/C(C)=C/C=O)[C@H](C)C[C@H]1O = inactive
3) Oc1ccc(C2c3c(O)cc(O)cc3[C@@H]3C(c4ccc(O)cc4)c4c(O)cc(O)cc4[C@H]23)cc1 (stereo partly drawn) = inactive
